# System: GFP-LC3B-RFP expressing HEK-293 cells
# assay_summary: Autophagic flux, GFP signal in GFP-LC3B-RFP expressing HEK-293 cells
# Type: cell-based
# condition_parameters: Homo sapiens, HEK293; 10 μM, 24 h, GFP signal percentage of DMSO control with SEM, HEK-293 cells; read-out: autophagy at 10 μM (%)
measurement_kind: activity at 10 µM (%)

compound: C[C@@H](C(=O)N1CCC[C@H]1c1nnn[nH]1)N(C)C(=O)CCCc1ccccc1
reading: 93
//
compound: O=C(c1ncc[nH]1)[C@@H]1CCCN1C(=O)[C@@H]1CCCN1C(=O)CCCc1ccccc1 [Compound 2a, reference compound]
reading: 95
//
compound: Cn1nnc([C@@H]2CCCN2C(=O)[C@@H]2CCCN2C(=O)CCCc2ccccc2)n1 [Compound 19a]
reading: 85
//
compound: O=C(CCCc1cccs1)N1CCC[C@H]1C(=O)N1CCC[C@H]1c1nnn[nH]1 [Compound 17a]
reading: 87
//
compound: C[C@H](NC(=O)CCCCc1ccccc1)C(=O)N1CCC[C@H]1c1nnn[nH]1 [Compound 16b]
reading: 94
//
compound: C[C@H](NC(=O)CCCc1cccs1)C(=O)N1CCC[C@H]1c1nnn[nH]1 [Compound 17b]
reading: 92
//
compound: Cn1nnnc1[C@@H]1CCCN1C(=O)[C@@H]1CCCN1C(=O)CCCc1ccccc1 [Compound 18a]
reading: 88
//
compound: O=C(CCCc1ccccc1)N1CCC[C@H]1C(=O)N1CCC[C@H]1c1ncc[nH]1 [Compound 27a]
reading: 96
